Tested on: HiBiT-HSD17β13 fusion protein (N-terminal HiBiT-tagged HSD17β13 isoform D) in Huh7 HiBiT-HSD17β13 OE cells
Assay: Whole-cell Huh7-HSD17B13 HiBiT assay (degrader potency and maximal efficacy, luminescence readout)
Assay type: cell-based, human
Details: 24 hour incubation, max. concentration 1 μM, geometric mean, * = geometric mean for all forms tested (parent and salt forms)
Method: Degrader potency and maximal efficacy of test compounds were determined using a whole-cell Huh7-HSD17B13 HiBiT assay, utilizing a luminescence readout. A HiBiT tag was fused to the N-terminus of HSD17β13, and therefore the HiBiT luminescence signal produced in the assay was proportional to the level of HiBiT-HSD17β13 fusion protein in a sample. […] Each assay was conducted after a 24 hour incubation period. […] Then Luminescence was read using an EnVision Plate Reader (Perkin Elmer PE2103). […]
Where a name gives a salt, the structure may show the parent alone.
measuredMetric: Huh7_HIBIT-HSD17β13_DC50 GMean Asymptote Maximum (%)
Just the number please, in %, no unit attached.

For Cn1c(=O)n(C2CCC(=O)NC2=O)c2ccc(CCN3CCOC4(C3)CN(c3ncc(-c5ccc6cn([C@H]7CC[C@H](CNC(=O)c8cc(F)c(O)c(F)c8F)CC7)nc6c5)cn3)C4)cc21 (mixture of isomers) [Example 79, trifluoroacetate salt] , what is its reported Huh7_HIBIT-HSD17β13_DC50 GMean Asymptote Maximum?
78

I would be grateful if you could share the reported Huh7_HIBIT-HSD17β13_DC50 GMean Asymptote Maximum for COc1cc(-c2nc([C@]34CC[C@](CNC(=O)c5cc(F)c(O)c(F)c5F)(CC3)CC4)no2)nc(N2CCN(CCCc3ccc4c(c3)n(C)c(=O)n4C3CCC(=O)NC3=O)CC2)n1 (mixture of isomers) .
79

What does the data say about its Huh7_HIBIT-HSD17β13_DC50 GMean Asymptote Maximum? Entry: O=C(O)C(F)(F)F.O=C1CCN(c2cnc3cc(CCCN4CCN(c5ncc(-c6ccc7cn(C8CCC(CNC(=O)c9cc(F)c(O)c(F)c9F)CC8)nc7c6)cn5)CC4)ccn23)C(=O)N1 (stereo not shown)
82

What value of Huh7_HIBIT-HSD17β13_DC50 GMean Asymptote Maximum has been recorded for this entry: Cn1c(=O)n(C2CCC(=O)NC2=O)c2ccc(CCN3CCOC4(CCN(c5ccc6cn([C@H]7CC[C@H](CNC(=O)c8cc(F)c(O)c(F)c8F)CC7)nc6c5)CC4)C3)cc21 (mixture of isomers) [Example 74, trifluoroacetate salt]
87

----------
Task for the reader: assign each of the following compounds its reported Huh7_HIBIT-HSD17β13_DC50 GMean Asymptote Maximum.
System: HiBiT-HSD17β13 fusion protein (N-terminal HiBiT-tagged HSD17β13 isoform D) in Huh7 HiBiT-HSD17β13 OE cells
Assay: Whole-cell Huh7-HSD17B13 HiBiT assay (degrader potency and maximal efficacy, luminescence readout)
Type: cell-based, human
Conditions: 24 hour incubation, max. concentration 1 μM, geometric mean, * = geometric mean for all forms tested (parent and salt forms)
Structures can show the parent of a compound that is named as a salt.
Respond with the bare value in %.

Query (compound): Cn1c(=O)n(C2CCC(=O)NC2=O)c2ccc(CCCN3CCOC4(CCN(c5ccc6cn([C@H]7CC[C@H](CNC(=O)c8cc(F)c(O)c(F)c8F)CC7)nc6c5)CC4)C3)cc21 (mixture of isomers) [Example 75, trifluoroacetate salt] ; field requested: Huh7_HIBIT-HSD17β13_DC50 GMean Asymptote Maximum
88

Which value of Huh7_HIBIT-HSD17β13_DC50 GMean Asymptote Maximum has been reported for O=C1CCC(N2Cc3c(OCc4ccc(CN5CCC(CCCOc6ccc(-c7noc([C@]89CC[C@](CNC(=O)c%10cc(F)c(O)c(F)c%10F)(CC8)CC9)n7)nn6)CC5)cc4)cccc3C2=O)C(=O)N1 (mixture of isomers) [Example 36, trifluoroacetate salt] in the records?
86

Give the measured Huh7_HIBIT-HSD17β13_DC50 GMean Asymptote Maximum of Cc1ccc(C(=O)N2CCN(CCOc3ncc(-c4ccc5cn(C67CCC(CNC(=O)c8cc(F)c(O)c(F)c8F)(CC6)CC7)nc5c4)cn3)CC2)cc1N1CCC(=O)NC1=O [Example 91] .
73
